Molecular target: Avi-KRAS G12V (1-169) GppNHp/RAF1 RBD-3xFLAG (52-151) (Homo sapiens, UniProt P01116, G12V)
Construct: Avi-KRAS G12V (1-169)
Sequence (P01116 1-169 isoform P01116-2 G12V): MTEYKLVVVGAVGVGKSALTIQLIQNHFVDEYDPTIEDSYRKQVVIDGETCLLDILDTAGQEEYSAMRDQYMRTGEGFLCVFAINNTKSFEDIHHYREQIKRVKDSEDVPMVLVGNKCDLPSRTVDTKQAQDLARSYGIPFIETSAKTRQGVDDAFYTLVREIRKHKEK
Assay: Raf1-KRAS G12V-GppNHP disruption HTRF assay (Biological Example 1)
Assay type: binding
Details: KRAS G12V-GppNHp/RAF1 RBD HTRF
Method: A protein:protein interaction (PPI) Homogeneous Time Resolved Fluorescence (HTRF) assay was used to determine the effectiveness of compounds of the present disclosure in disrupting KRAS protein and effector RAF1 binding. The assay buffer included: 50 mM Tris pH 7.5, 100 mM NaCl, 5 mM MgCl2, 0.1% BSA, 0.01% Tween, and 10% DMSO. The bead buffer included: 50 mM Tris pH 7.5, and 0.01% Tween 20. […] Data was reported as percentage of activity, with DMSO as 100%. Data was plotted and analyzed using Prism 8.
property.name: IC50

Measured IC50 of C[C@@H]1[C@H](N(C)c2nc(OC[C@@]34CCCN3C[C@H](F)C4)nc3c(F)c(-c4ccc(F)c5sc(N)c(C#N)c45)c(C(F)(F)F)cc23)CCN1C(=O)C(C)(C)C [Compound 312] : 100 to 1000 nM

Measured IC50 of CC[C@@H](C)C(=O)N1CC[C@H](N(CC)c2nc(OC[C@@]34CCCN3C[C@H](F)C4)nc3c(F)c(-c4ccc(F)c5sc(N)c(C#N)c45)c(C(F)(F)F)cc23)C1 (atropisomer, axis not shown) [Compound 563] : 100 to 1000 nM

Measured IC50 of CCC(=O)N1CC[C@@H](N(C)c2nc(OC[C@]34CCCN3C[C@H](F)C4)nc3c(F)c(-c4ccc(F)c5sc(N)c(C#N)c45)c(C(F)(F)F)cc23)[C@H]1C (atropisomer, axis not shown) [Compound 336] : > 10000 nM

Further cases:
Measured IC50 of CCN(c1nc(OC[C@@]23CCCN2C[C@H](F)C3)nc2c(F)c(-c3ccc(F)c4sc(N)c(C#N)c34)c(C(F)(F)F)cc12)[C@H]1CCN(C(=O)C(C)C)C1 [Compound 332] : 100 to 1000 nM

Measured IC50 of Cc1cc2n(n1)CCN(c1nc(OCC34CCCN3CC(F)C4)nc3c(F)c(-c4ccc(F)c5sc(N)c(C#N)c45)c(C(F)(F)F)cc13)C2 (stereo not shown) [Compound 484] : 1000 to 10000 nM

Measured IC50 of C[C@H]1CC[C@@H](O)CN1c1nc(OC[C@@]23CCCN2C[C@H](F)C3)nc2c(F)c(-c3ccc(F)c4sc(N)c(C#N)c34)c(C(F)(F)F)cc12 [Compound 317] : 1000 to 10000 nM

Measured IC50 of CCN(c1nc(OC[C@@]23CCCN2C[C@H](F)C3)nc2c(F)c(-c3ccc(F)c4sc(N)c(C#N)c34)c(Cl)cc12)[C@@H]1CCN(C(C)=O)[C@@H]1C [Compound 323] : 100 to 1000 nM

Measured IC50 of N#Cc1c(N)sc2c(F)ccc(-c3c(C(F)(F)F)cc4c(N5CCn6nc(C7CC7)cc6C5)nc(OC[C@@]56CCCN5C[C@H](F)C6)nc4c3F)c12 [Compound 483] : > 10000 nM

Measured IC50 of CN(C)C(=O)c1cn2c(n1)CN(c1nc(OC[C@@]34CCCN3C[C@H](F)C4)nc3c(F)c(-c4ccc(F)c5sc(N)c(C#N)c45)c(C(F)(F)F)cc13)CC2 [Compound 419] : 100 to 1000 nM

Measured IC50 of C[C@H]1C[C@H](N(C)c2nc(OC[C@@]34CCCN3C[C@H](F)C4)nc3c(F)c(-c4ccc(F)c5sc(N)c(C#N)c45)c(C(F)(F)F)cc23)CN1C(=O)C1CC1 [Compound 437] : 100 to 1000 nM

###

Molecular target: Avi-KRAS G12V (1-169) GppNHp/RAF1 RBD-3xFLAG (52-151) (Homo sapiens, UniProt P01116, G12V)
Construct: Avi-KRAS G12V (1-169)
Assay: Raf1-KRAS G12V-GppNHP disruption HTRF assay (Biological Example 1)
Type: binding
Conditions: KRAS G12V, GppNHp-loaded; Table 11
property.name: IC50

Please review the entries below; each comes with its answer.
Measured IC50 of COC[C@H]1CCN1c1nc(OC[C@@]23CCCN2C[C@H](F)C3)nc2c(F)c(-c3ccc(F)c4sc(N)c(C#N)c34)c(C(F)(F)F)cc12 [Compound 270] : 100 to 1000 nM

Measured IC50 of Nc1nc2c(-c3c(C(F)(F)F)cc4c(N[C@H]5CC[C@@H](O)CC5)nc(OCC56CCCN5CCC6)nc4c3F)ccc(F)c2s1 [Compound 64] : 1000 to 10000 nM

// switching to the query compound
Measured IC50 of CC(=O)N1C[C@@H](N(C)c2nc(OC[C@@]34CCCN3C[C@H](F)C4)nc3c(F)c(-c4ccc(F)c5sc(N)c(C#N)c45)c(C(F)(F)F)cc23)C[C@H]1C [Compound 277] : 100 to 1000 nM

###

Target: Avi-KRAS G12D (1-169) GppNHp/RAF1 RBD-3xFLAG (52-151) (Homo sapiens, UniProt P01116, G12D)
Construct: Avi-KRAS G12D (1-169)
Sequence (P01116 1-169 isoform P01116-2 G12D): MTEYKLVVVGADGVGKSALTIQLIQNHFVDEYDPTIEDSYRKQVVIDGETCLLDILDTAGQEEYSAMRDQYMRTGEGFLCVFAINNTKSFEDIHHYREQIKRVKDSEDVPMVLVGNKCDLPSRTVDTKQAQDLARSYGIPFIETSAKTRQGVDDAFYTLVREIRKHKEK
Test: Raf1-KRAS G12D-GppNHP disruption HTRF assay (Biological Example 1)
Format: binding
Conditions: KRAS G12D, GppNHp-loaded; class symbols
pIC50: −log10 of the molar value.
This section presents molecules with their documented pIC50 values.

Please review the entries below; each comes with its answer.
Measured pIC50 of CCN(c1nc(OC[C@@]23CCCN2C[C@H](F)C3)nc2c(F)c(-c3ccc(F)c4sc(N)c(C#N)c34)c(C(F)(F)F)cc12)[C@H]1CCN(C(=O)N2CC3CC(C2)O3)C1 [Compound 651] : > 7.00

Measured pIC50 of C[C@@H]1[C@H](N(C)c2nc(OC[C@]34C[C@@H](F)CN3CC3(CC3)C4)nc3c(F)c(-c4ccc(F)c5sc(N)c(C#N)c45)c(Cl)cc23)CCN1C(=O)C1CC1 [Compound 593] : 5.00 to 6.00

Further cases:
Measured pIC50 of C=C(C)C(=O)N1CC[C@@H](N(C)c2nc(OC[C@@]34CCCN3C[C@H](F)C4)nc3c(F)c(-c4ccc(F)c5sc(N)c(C#N)c45)c(C(F)(F)F)cc23)[C@H]1C [Compound 671] : 6.00 to 7.00

###

Test system: GP2d cells (KRAS G12D)
Test: Cell-based pERK HTRF assay in GP2d cell (Biological Example 2)
Settings: GP2d, GP2d (KRAS G12D) cells, pERK HTRF
pIC50: −log10 of the molar value.
This section presents molecules with their documented pIC50 values.

Please review the entries below; each comes with its answer.
Measured pIC50 of CCN(c1nc(OC[C@@]23CCCN2C[C@H](F)C3)nc2c(F)c(-c3ccc(F)c4sc(N)c(C#N)c34)c(C(F)(F)F)cc12)[C@@H]1C[C@H](C)N(C(C)=O)C1 (atropisomer, axis not shown) : > 7.00

Measured pIC50 of CN(C)C(=O)c1nc2c(s1)CN(c1nc(OCC34CCCN3CC(F)C4)nc3c(F)c(-c4ccc(F)c5sc(N)c(C#N)c45)c(C(F)(F)F)cc13)CC2 (centres unmarked) : > 7.00

Measured pIC50 of `C[C@@H](O)C1CCN(c2nc(OC[C@@]34CCCN3C[C@H](F)C4)nc3c(F)c(-c4ccc(F)c5sc(N)c(C#N)c45)c(C(F)(F)F)cc23)CC1` : > 7.00

Measured pIC50 of `CS(=O)(=O)C1CN(c2nc(OC[C@@]34CCCN3C[C@H](F)C4)nc3c(F)c(-c4ccc(F)c5sc(N)c(C#N)c45)c(C(F)(F)F)cc23)C1` : 6.00 to 7.00

// switching to the query molecule
Measured pIC50 of `C[C@@H](CO)N(C)c1nc(OC[C@@]23CCCN2C[C@H](F)C3)nc2c(F)c(-c3ccc(F)c4sc(N)c(C#N)c34)c(C(F)(F)F)cc12` : > 7.00

###

This section presents compounds with their documented pIC50 values.
Tested on: SW620 cells (KRAS G12V)
Assay: Cell-based pERK HTRF assay in SW620 cell (Biological Example 4)
Settings: Homo sapiens, SW-620, SW620 (KRAS G12V) cells, pERK HTRF
pIC50: −log10 of the molar value.

Please review the entries below; each comes with its answer.
Tested system SW620 cells (KRAS G12V); pIC50 recorded for `N#Cc1c(N)sc2c(F)ccc(-c3c(C(F)(F)F)cc4c(N5CCCC[C@@H](O)C5)nc(OC[C@@]56CCCN5C[C@H](F)C6)nc4c3F)c12` was > 7.00

Tested system SW620 cells (KRAS G12V); pIC50 recorded for `N#Cc1c(N)sc2c(F)ccc(-c3c(C(F)(F)F)cc4c(N5C[C@@H]6C[C@H]5CS6(=O)=O)nc(OC[C@@]56CCCN5C[C@H](F)C6)nc4c3F)c12` was 6.00 to 7.00

Tested system SW620 cells (KRAS G12V); pIC50 recorded for `C[C@@H]1[C@H](N(C)c2nc(OC[C@@]34CCCN3C[C@H](F)C4)nc3c(F)c(-c4ccc(F)c5sc(N)c(C#N)c45)c(Cl)cc23)CCN1C(=O)CF` was > 7.00

Tested system SW620 cells (KRAS G12V); pIC50 recorded for `N#Cc1c(N)sc2c(F)ccc(-c3c(Cl)cc4c(N5C[C@H]6C[C@@H]5CO6)nc(OC[C@@]56CCCN5C[C@H](F)C6)nc4c3F)c12` was > 7.00

Tested system SW620 cells (KRAS G12V); pIC50 recorded for CCN(c1nc(OC[C@@]23CCCN2C[C@H](F)C3)nc2c(F)c(-c3ccc(F)c4sc(N)c(C#N)c34)c(C(F)(F)F)cc12)[C@@H]1C[C@H](C)N(C(=O)OC)C1 (atropisomer, axis not shown) was > 7.00

Further cases:
Tested system SW620 cells (KRAS G12V); pIC50 recorded for `N#Cc1c(N)sc2c(F)ccc(-c3c(C(F)(F)F)cc4c(N5C[C@H]6C[C@@H]5[C@@H](O)C6)nc(OC[C@@]56CCCN5C[C@H](F)C6)nc4c3F)c12` was 6.00 to 7.00

Tested system SW620 cells (KRAS G12V); pIC50 recorded for `CN(Cc1cccnc1N)c1nc(OC[C@@]23CCCN2C[C@H](F)C3)nc2c(F)c(-c3ccc(F)c4sc(N)c(C#N)c34)c(C(F)(F)F)cc12` was > 7.00

Tested system SW620 cells (KRAS G12V); pIC50 recorded for `C[C@H]1[C@H](O)CCCN1c1nc(OC[C@@]23CCCN2C[C@H](F)C3)nc2c(F)c(-c3ccc(F)c4sc(N)c(C#N)c34)c(C(F)(F)F)cc12` was > 7.00
